# Tested on: MDA-MB-435 melanoma
# procedure_summary: NCI-60 one-dose screen, 48 h (100 = growth as untreated, 0 = no growth, -100 = all killed)
# test_context: 10 µM
The panel holds about 83,000 compounds, 20% with a hit somewhere; the sample as a whole holds those more often.
Give yes (1) when the value for growth is at least 60%. Give no (0) when it is less.

{"compound": "CC1(C)CNC(=O)N1", "answer_label": "yes (1)"}
{"compound": "Cc1cc(=O)oc2cc(OCc3cn(CC(O)CO)nn3)ccc12 (configuration not stated)", "answer_label": "yes (1)"}
{"compound": "Cc1cc(Nc2cccc(F)c2)nc(NCc2ccccc2)n1", "answer_label": "no (0)"}
{"compound": "O=C(CCCC(=O)N/N=C/c1cc(Cl)ccc1O)N/N=C\\c1cc(Cl)ccc1O", "answer_label": "no (0)"}
{"compound": "Cc1cc(Cl)ccc1Nc1nc(C(F)(F)F)ccc1C(=O)N/N=C/c1ccccc1Cl", "answer_label": "no (0)"}
{"compound": "FC(F)(F)c1ccc(-c2cnc(Br)nc2NC2CCCCCC2)cc1", "answer_label": "no (0)"}
{"compound": "C=CCNC(=S)NN", "answer_label": "yes (1)"}
{"compound": "CCn1nc(-c2ccc(C(=O)OC)cc2)nc2c(=O)n(C)c(=O)nc1-2", "answer_label": "yes (1)"}
{"compound": "CCOC(=O)C(CCC1=NC(C)(C)CC(C)O1)C(=O)OCC (configuration not stated)", "answer_label": "yes (1)"}
{"compound": "Oc1ccc(/C=N\\Nc2ccccn2)c(O)c1", "answer_label": "no (0)"}
{"compound": "COc1ccc(NC(=O)CCn2cnc3c(cc(-c4ccccc4)n3-c3ccccc3)c2=O)cc1", "answer_label": "yes (1)"}
{"compound": "Cc1nc(N)sc1Sc1nc2ccc(Cl)cc2c(=O)n1-c1ccc(Oc2ccccc2)cc1", "answer_label": "yes (1)"}
